- Protocol description: activity coefficient (dimensionless); of the first substance listed, at infinite dilution; xn = mol fraction of the nth substance listed
- Condition summary: 328.15 K; 100 kPa; Liquid; Chromatography; x1 = 0
Quantity name: activity coefficient

Req: Quickly give me recorded activity coefficient for Cc1ccccc1C [1,2-dimethylbenzene] + CCCC[n+]1ccc(C#N)cc1.O=S(=O)([N-]S(=O)(=O)C(F)(F)F)C(F)(F)F
Resp: 2

Req: Return activity coefficient for the following compound: O [water] + CCCC[n+]1ccc(C#N)cc1.O=S(=O)([N-]S(=O)(=O)C(F)(F)F)C(F)(F)F
Resp: 2.74

Req: State its activity coefficient: CC#N [acetonitrile] + CCCC[n+]1ccc(C#N)cc1.O=S(=O)([N-]S(=O)(=O)C(F)(F)F)C(F)(F)F
Resp: 0.466

Req: Give the measured activity coefficient for CCO [ethanol] + CCCC[n+]1ccc(C#N)cc1.O=S(=O)([N-]S(=O)(=O)C(F)(F)F)C(F)(F)F
Resp: 1.64

Req: Please indicate activity coefficient recorded for CCC(C)(C)C [2,2-dimethylbutane] + CCCC[n+]1ccc(C#N)cc1.O=S(=O)([N-]S(=O)(=O)C(F)(F)F)C(F)(F)F
Resp: 28.2

Req: Give a short answer stating reported activity coefficient for C=CCCC [1-pentene] + CCCC[n+]1ccc(C#N)cc1.O=S(=O)([N-]S(=O)(=O)C(F)(F)F)C(F)(F)F .
Resp: 10.3

Req: Please report the measured activity coefficient for CCCC=O [butanal] + CCCC[n+]1ccc(C#N)cc1.O=S(=O)([N-]S(=O)(=O)C(F)(F)F)C(F)(F)F
Resp: 0.773

Req: Provide one value: measured activity coefficient of CCC(C)(C)OC [2-methoxy-2-methylbutane] + CCCC[n+]1ccc(C#N)cc1.O=S(=O)([N-]S(=O)(=O)C(F)(F)F)C(F)(F)F
Resp: 4.62

Req: Supply activity coefficient value. Item: C#CCCCCC [1-heptyne] + CCCC[n+]1ccc(C#N)cc1.O=S(=O)([N-]S(=O)(=O)C(F)(F)F)C(F)(F)F
Resp: 7.11

====

- Protocol description: activity coefficient (dimensionless); of the first substance listed, at infinite dilution; xn = mol fraction of the nth substance listed
- Condition summary: 338.15 K; 100 kPa; Liquid; Chromatography; x1 = 0
Quantity name: activity coefficient
API doc: respond with a numeric literal and nothing else, no unit.

Req: Given the molecule C1CCOC1 [tetrahydrofuran] + CCCC[n+]1ccc(C#N)cc1.O=S(=O)([N-]S(=O)(=O)C(F)(F)F)C(F)(F)F , write its reported activity coefficient.
Resp: 0.742

Req: Give activity coefficient for the following molecule: CCCC=O [butanal] + CCCC[n+]1ccc(C#N)cc1.O=S(=O)([N-]S(=O)(=O)C(F)(F)F)C(F)(F)F
Resp: 0.811

Req: Identify activity coefficient associated with the molecule CCCc1ccccc1 [propylbenzene] + CCCC[n+]1ccc(C#N)cc1.O=S(=O)([N-]S(=O)(=O)C(F)(F)F)C(F)(F)F
Resp: 4.21

====

- Protocol description: activity coefficient (dimensionless); of the first substance listed, at infinite dilution; xn = mol fraction of the nth substance listed
- Condition summary: 358.15 K; 100 kPa; Liquid; Chromatography; x1 = 0
Quantity name: activity coefficient
Reply with the value as a number alone.

Req: Given the molecule CC(C)CC(C)(C)C [2,2,4-trimethylpentane] + CCCC[n+]1ccc(C#N)cc1.O=S(=O)([N-]S(=O)(=O)C(F)(F)F)C(F)(F)F , write its reported activity coefficient.
Resp: 32.5

Req: Input C=CCCCCCC [oct-1-ene] + CCCC[n+]1ccc(C#N)cc1.O=S(=O)([N-]S(=O)(=O)C(F)(F)F)C(F)(F)F , output reported activity coefficient.
Resp: 25.3

Req: Fill in activity coefficient for record COC(C)(C)C [2-methoxy-2-methylpropane] + CCCC[n+]1ccc(C#N)cc1.O=S(=O)([N-]S(=O)(=O)C(F)(F)F)C(F)(F)F
Resp: 3.56

Req: For the molecule C#CCCCC [1-hexyne] + CCCC[n+]1ccc(C#N)cc1.O=S(=O)([N-]S(=O)(=O)C(F)(F)F)C(F)(F)F , report activity coefficient.
Resp: 5.28

Req: Note down activity coefficient recorded for CCCCC [pentane] + CCCC[n+]1ccc(C#N)cc1.O=S(=O)([N-]S(=O)(=O)C(F)(F)F)C(F)(F)F
Resp: 17.2

Req: Note down activity coefficient recorded for C1CCCCCCC1 [cyclooctane] + CCCC[n+]1ccc(C#N)cc1.O=S(=O)([N-]S(=O)(=O)C(F)(F)F)C(F)(F)F
Resp: 21.6

Req: Name the recorded activity coefficient of the molecule listed here: C1COCCO1 [1,4-dioxane] + CCCC[n+]1ccc(C#N)cc1.O=S(=O)([N-]S(=O)(=O)C(F)(F)F)C(F)(F)F
Resp: 0.631

Req: Complete the entry with activity coefficient for COC(C)=O [methyl ethanoate] + CCCC[n+]1ccc(C#N)cc1.O=S(=O)([N-]S(=O)(=O)C(F)(F)F)C(F)(F)F
Resp: 0.8

Req: Identify measured activity coefficient associated with CCC(C)O (stereo not given) [butan-2-ol] + CCCC[n+]1ccc(C#N)cc1.O=S(=O)([N-]S(=O)(=O)C(F)(F)F)C(F)(F)F
Resp: 1.94

Req: Look up activity coefficient of CCCC(=O)OC [methyl butanoate] + CCCC[n+]1ccc(C#N)cc1.O=S(=O)([N-]S(=O)(=O)C(F)(F)F)C(F)(F)F and report it.
Resp: 1.48
